All figures here come from ChEMBL document CHEMBL1135909.

Biological target: Apoptosis regulator Bcl-2 (Homo sapiens, UniProt P10415)
Sequence (P10415 whole entry): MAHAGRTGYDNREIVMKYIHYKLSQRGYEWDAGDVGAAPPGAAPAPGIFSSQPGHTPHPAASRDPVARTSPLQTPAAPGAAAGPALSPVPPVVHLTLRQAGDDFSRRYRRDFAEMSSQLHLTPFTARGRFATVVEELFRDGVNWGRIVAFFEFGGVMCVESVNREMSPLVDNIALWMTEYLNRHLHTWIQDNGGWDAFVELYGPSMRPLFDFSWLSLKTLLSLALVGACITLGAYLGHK
Experiment: Inhibitory activity against Bcl-2 functioning
observed.property: IC50

The measured IC50 associated with CCSCCCCC(c1ccc(O)cc1)C(C)(CC)c1ccc(O)cc1 (stereo unspecified) reads ~9 µM

###

Molecular target: Tumor necrosis factor receptor superfamily member 16 (Homo sapiens, UniProt P08138)
Sequence (P08138 whole entry): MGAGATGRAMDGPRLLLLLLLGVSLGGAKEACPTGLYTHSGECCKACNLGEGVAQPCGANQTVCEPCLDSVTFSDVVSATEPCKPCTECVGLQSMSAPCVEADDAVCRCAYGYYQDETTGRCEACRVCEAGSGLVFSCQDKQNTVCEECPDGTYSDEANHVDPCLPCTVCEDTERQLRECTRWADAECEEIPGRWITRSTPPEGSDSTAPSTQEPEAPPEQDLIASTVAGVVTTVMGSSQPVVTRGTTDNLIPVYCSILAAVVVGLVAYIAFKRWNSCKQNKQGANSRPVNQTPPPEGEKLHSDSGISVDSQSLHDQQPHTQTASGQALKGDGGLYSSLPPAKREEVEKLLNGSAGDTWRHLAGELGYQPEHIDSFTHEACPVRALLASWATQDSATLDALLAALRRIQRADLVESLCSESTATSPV
Assay: Competitive binding against Nerve growth factor to p75-NGF receptor in PC12 cells
observed.property: pIC50
A value of pIC50 is the negative decimal logarithm of a concentration given in moles per litre.

Entry O=C1c2cccc3cc([N+](=O)[O-])cc(c23)C(=O)N1NCCO under Tumor necrosis factor receptor superfamily member 16 (Homo sapiens, UniProt P08138) had pIC50 of 5.43

###

Target: Proto-oncogene tyrosine-protein kinase Src (Homo sapiens, UniProt P12931)
Sequence (P12931 2-536 limits assumed): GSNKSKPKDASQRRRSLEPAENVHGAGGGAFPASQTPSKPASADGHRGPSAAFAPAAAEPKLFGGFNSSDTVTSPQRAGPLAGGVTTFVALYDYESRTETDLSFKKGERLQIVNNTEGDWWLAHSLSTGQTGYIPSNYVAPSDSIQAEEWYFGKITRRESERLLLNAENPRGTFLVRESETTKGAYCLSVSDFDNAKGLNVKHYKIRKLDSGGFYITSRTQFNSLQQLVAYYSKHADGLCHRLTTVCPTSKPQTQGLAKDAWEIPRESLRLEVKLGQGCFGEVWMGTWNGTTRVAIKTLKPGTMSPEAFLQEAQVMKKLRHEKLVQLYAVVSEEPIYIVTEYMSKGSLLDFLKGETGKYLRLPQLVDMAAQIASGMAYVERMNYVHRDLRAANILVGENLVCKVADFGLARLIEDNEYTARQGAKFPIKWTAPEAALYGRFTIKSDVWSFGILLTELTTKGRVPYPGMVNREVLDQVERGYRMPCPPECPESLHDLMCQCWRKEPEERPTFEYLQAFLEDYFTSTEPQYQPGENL
Assay: Inhibition of Src protein tyrosine kinase
observed.property: IC50 (nM)
Record the value in nM, omitting the unit from your answer.

The measured IC50 associated with CC(=O)NC(Cc1ccc(P(=O)(O)O)c(P(=O)(O)O)c1)C(=O)N[C@H]1CCCCc2cc(OCC3CCCCC3)c(C(N)=O)cc21 (stereo partly specified) reads 300
